Listed next: entries and their corresponding MIC.
Test system: Trichophyton mentagrophytes
Assay: Antifungal activity against Trichophyton mentagrophytes 445 after 48 hrs by microdilution broth method
Assay type: functional
Conditions: Trichophyton mentagrophytes, 445, 48 h

SMILES_RECORD: O=C(Nc1cc(C(F)(F)F)cc(C(F)(F)F)c1)c1cc([N+](=O)[O-])ccc1O
MIC: > 500 µM
//
SMILES_RECORD: O=C(Nc1cccc(I)c1)c1ccc([N+](=O)[O-])cc1O
MIC: > 500 µM
//
SMILES_RECORD: O=C(Nc1cccc([N+](=O)[O-])c1)c1ccc([N+](=O)[O-])cc1O
MIC: > 250 µM
//
SMILES_RECORD: O=C(Nc1ccc([N+](=O)[O-])c(C(F)(F)F)c1)c1ccc([N+](=O)[O-])cc1O
MIC: > 500 µM
//
SMILES_RECORD: O=C(Nc1cccc(C(F)(F)F)c1)c1ccc([N+](=O)[O-])cc1O
MIC: > 500 µM
//
SMILES_RECORD: O=C(Nc1cccc(I)c1)c1cc([N+](=O)[O-])ccc1O
MIC: 125 µM
//
SMILES_RECORD: O=C(Nc1ccc([N+](=O)[O-])cc1)c1cc([N+](=O)[O-])ccc1O
MIC: > 500 µM
//
SMILES_RECORD: O=C(Nc1cccc([N+](=O)[O-])c1)c1cc([N+](=O)[O-])ccc1O
MIC: > 250 µM
//
SMILES_RECORD: O=C(Nc1cccc(Cl)c1)c1cc([N+](=O)[O-])ccc1O
MIC: 250 µM
//
SMILES_RECORD: O=C(Nc1cccc(C(F)(F)F)c1)c1cc([N+](=O)[O-])ccc1O
MIC: 500 µM
//
SMILES_RECORD: O=C(Nc1ccc(Cl)c(Cl)c1)c1ccc([N+](=O)[O-])cc1O
MIC: 125 µM
//
SMILES_RECORD: O=C(Nc1cccc(Br)c1)c1ccc([N+](=O)[O-])cc1O
MIC: 250 µM
//
SMILES_RECORD: O=C(Nc1ccc([N+](=O)[O-])cc1)c1ccc([N+](=O)[O-])cc1O
MIC: > 500 µM

====

Test system: Mycobacterium kansasii
Assay: Antimycobacterial activity against Mycobacterium kansasii 6509/96 after 21 days
Format: functional
Conditions: 6509/96, 504 h

SMILES_RECORD: O=C(Nc1cccc([N+](=O)[O-])c1)c1cccc([N+](=O)[O-])c1O
UNIT_STRING: µM
MIC: 250

SMILES_RECORD: O=C(Nc1cccc(I)c1)c1ccc([N+](=O)[O-])cc1O
UNIT_STRING: µM
MIC: 16

SMILES_RECORD: O=C(Nc1cccc([N+](=O)[O-])c1)c1ccc([N+](=O)[O-])cc1O
UNIT_STRING: µM
MIC: 32

SMILES_RECORD: O=C(Nc1cccc(C(F)(F)F)c1)c1cc([N+](=O)[O-])ccc1O
UNIT_STRING: µM
MIC: 62.5

SMILES_RECORD: O=C(Nc1cccc(Br)c1)c1ccc([N+](=O)[O-])cc1O
UNIT_STRING: µM
MIC: 16

SMILES_RECORD: O=C(Nc1ccc(Cl)c(Cl)c1)c1cccc([N+](=O)[O-])c1O
UNIT_STRING: µM
MIC: 62.5

SMILES_RECORD: O=C(Nc1cccc(C(F)(F)F)c1)c1ccc([N+](=O)[O-])cc1O
UNIT_STRING: µM
MIC: 16

SMILES_RECORD: O=C(Nc1cccc(I)c1)c1cccc([N+](=O)[O-])c1O
UNIT_STRING: µM
MIC: 125

SMILES_RECORD: O=C(Nc1ccc(C(F)(F)F)cc1)c1ccc([N+](=O)[O-])cc1O
UNIT_STRING: µM
MIC: 8

SMILES_RECORD: O=C(Nc1cc(C(F)(F)F)cc(C(F)(F)F)c1)c1cc([N+](=O)[O-])ccc1O
UNIT_STRING: µM
MIC: 32
